Readings of HLM (% Qh) for the listed compounds
ASSAY_PROTOCOL: human liver microsome (HLM) metabolic stability assay
Assay type: in vitro ADME
COND: human liver microsomes; % hepatic blood flow calculated from t1/2
ENDPOINT: HLM (% Qh)

                                    compound  modifier  quantitative_readout
 0  COc1c(C(=O)O)cnn1-c1cccc(-c2cccc(C)c2OCc2ccc3c(c2)CCN(C2CC4CCC(C2)O4)C3)n1 (centres unmarked)         <                    24
 1  COc1c(C(=O)O)cnn1-c1cccc(-c2cccc(C)c2OCc2ccc3c(c2Cl)CCN(CC2(C)COC2)C3)n1         =                    29
 2  COc1c(C(=O)O)cnn1-c1cccc(-c2cccc(C)c2OCc2ccc3c(c2)CCCN(C2CCOCC2)C3)n1         =                    31
 3  Cc1cccc(-c2cccc(-n3ncc(C(=O)O)c3OC(C)C)n2)c1OCc1ccc2c(c1C)CCN(C(C)C)C2         =                    26
 4  CCOc1c(C(=O)O)cnn1-c1cccc(-c2cccc(C)c2OCc2ccc3c(c2)OCCN(C2CCOCC2)C3)n1         =                    28
 5  CCOc1c(C(=O)O)cnn1-c1cccc(-c2cccc(C)c2OCc2ccc3c(c2)CCN(CC2(C)COC2)C3)n1         <                    24
 6  CCOc1c(C(=O)O)cnn1-c1cccc(-c2cccc(C)c2OCc2ccc3c(c2)CCN(C2CCOCC2F)C3)n1 (centres unmarked)         <                    24
 7  COc1c(C(=O)O)cnn1-c1cccc(-c2cccc(C)c2OCc2ccc3c(c2)C(C)(C)CN(C2CCOC2)C3)n1 (centres unmarked)         =                    89
 8  CCOc1c(C(=O)O)cnn1-c1cccc(-c2cccc(C)c2OCc2ccc3c(c2C)CCN(C2CCOCC2)C3)n1         <                    24
 9  CCOc1c(C(=O)O)cnn1-c1cccc(-c2cccc(C)c2OCc2ccc3c(c2C)CCN(CCOCCO)C3)n1         <                    24
10  CCOc1c(C(=O)O)cnn1-c1cccc(-c2cccc(C)c2OCc2ccc3c(c2C)CCN(C2COC2)CC3)n1         =                    31
11  COc1c(C(=O)O)cnn1-c1cccc(-c2cccc(C)c2OCc2ccc3c(c2)CCN(C2COC2)C3)n1         <                    24
12  CCOc1c(C(=O)O)cnn1-c1cccc(-c2cccc(C)c2OCc2ccc3c(c2C)CCN(C[C@H]2CCO2)CC3)n1         =                    52
13  CCCOc1c(C(=O)O)cnn1-c1cccc(-c2cccc(C)c2OCc2ccc3c(c2C)CCN(C2CCOCC2)C3)n1         <                    24
